PROCEDURE DETAILS: clinical
SETTINGS: human, plasma, sc, 100 mg/m2
QUANTITY NAME: half-life (h)
Kindly provide the numeric value in h only, without the unit symbol.

Find the recorded half-life belonging to Nc1ncn([C@@H]2O[C@H](CO)[C@@H](O)[C@H]2O)c(=O)n1 [azacitidine] and report it.
6.82

###

PROCEDURE DETAILS: clinical
SETTINGS: human, plasma, sc, 100 mg/m2
QUANTITY NAME: AUC(0-inf) (ng·h/mL)
Field: numeric (ng·h/mL). Do not append units.

Which measured AUC(0-inf) value corresponds to Nc1ncn([C@@H]2O[C@H](CO)[C@@H](O)[C@H]2O)c(=O)n1 ?
1120

###

PROCEDURE DETAILS: clinical
SETTINGS: human, plasma, sc, 100 mg/m2
QUANTITY NAME: Tmax (min)
Give your result in min as a bare value.

What value of Tmax has been reported for the following compound? Nc1ncn([C@@H]2O[C@H](CO)[C@@H](O)[C@H]2O)c(=O)n1
26
